System: HBV
Assay protocol: Secreted HBV DNA in HepAD38 culture supernatant (RT-qPCR)
Type: cell-based
Test parameters: Hepatitis B virus, HePAD38, 144 h, read-out: EC50 (secreted HBV DNA)
pEC50: −log10 of the molar value.

{"columns": ["Compound", "pEC50"],
 "data": [
  ["C=C1[C@H](CO)[C@@H](O)C[C@@H]1n1cnc2c(=O)[nH]c(N)nc21 [ETV, Entecavir, reference compound]", 8.52]
]}

====

Quick reference: SI (CC50/EC50) of the listed items.
Test system: HBV
Assay protocol: Secreted HBV DNA in HepAD38 culture supernatant (RT-qPCR)
Type: cell-based
Test parameters: HepAD38 cells
Marks after values point to notes of the source that are not given here.
Measurement type: SI (CC50/EC50)

{"columns": ["Compound", "Measured"],
 "data": [
  ["CC1(C(=O)NCc2ccc(F)cc2)CCCN(C(=O)Nc2ccc(F)c(Cl)c2)C1 (stereo not shown) [Compound C-27]", "72.8 ^a"],
  ["O=C(Nc1ccc(F)c(Cl)c1)C1CCCN(S(=O)(=O)c2c[nH]c(C(=O)N3CCCC3)c2)C1 (stereo not shown) [Compound C-40]", "32.3 ^a"],
  ["Cc1cc2c(cc1S(=O)(=O)N1CCCC(C(=O)Nc3ccc(F)c(Cl)c3)C1)OCC(=O)N2 (stereo not shown) [Compound C-29]", "14.1 ^a"],
  ["Cc1cccc(NC(=O)c2ccc3nnc(SCC(=O)Nc4ccc(F)c(F)c4)n3c2)c1 [Compound C-16]", 56.3],
  ["O=C(CSc1nnc(-c2cccs2)n1CCc1ccccc1)Nc1ccc(F)cc1 [Compound C-7]", ">54.7"],
  ["Cc1nc(-c2csc(S(=O)(=O)N3CCCC(C(=O)Nc4ccc(F)c(Cl)c4)C3)c2)no1 (stereo not shown) [Compound C-41]", "1542 ^a"],
  ["O=C(Nc1ccc(F)c(F)c1)c1cc(S(=O)(=O)N(CCc2ccccc2)Cc2ccccc2)ccc1F [Compound C-19]", 194.1],
  ["CCOC(=O)c1c(C)[nH]c(C)c1S(=O)(=O)N1CCCC(C(=O)Nc2ccc(F)c(Cl)c2)C1 (stereo not shown) [Compound C-37]", "31.3 ^a"],
  ["Cc1cc2c(cc1S(=O)(=O)N1CCCC(C(=O)Nc3ccc(F)c(Cl)c3)C1)OC(C)C(=O)N2 (stereo not shown) [Compound C-18]", 131.2],
  ["COc1cccc(-c2noc([C@@H]3CCCN3C(=O)Nc3ccc(F)c(Cl)c3)n2)c1 [Compound C-9]", 23.4],
  ["CC1Oc2ccc(S(=O)(=O)N3CCCC(C(=O)Nc4ccc(F)c(Cl)c4)C3)cc2NC1=O (stereo not shown) [Compound C-35]", "23.9 ^a"],
  ["CC(=O)N1c2ccc(S(=O)(=O)N3CCCC(C(=O)Nc4ccc(F)c(Cl)c4)C3)cc2CC1C (stereo not shown) [Compound C-31]", "96.0 ^a"],
  ["O=C(CSc1nnc2ccc(C(=O)Nc3cccc(F)c3)cn12)Nc1ccc(F)c(F)c1 [Compound C-25]", "114.6 ^a"]
]}
